Molecular target: DNA topoisomerase 1 (Homo sapiens) (UniProt P11387)
Sequence (whole entry): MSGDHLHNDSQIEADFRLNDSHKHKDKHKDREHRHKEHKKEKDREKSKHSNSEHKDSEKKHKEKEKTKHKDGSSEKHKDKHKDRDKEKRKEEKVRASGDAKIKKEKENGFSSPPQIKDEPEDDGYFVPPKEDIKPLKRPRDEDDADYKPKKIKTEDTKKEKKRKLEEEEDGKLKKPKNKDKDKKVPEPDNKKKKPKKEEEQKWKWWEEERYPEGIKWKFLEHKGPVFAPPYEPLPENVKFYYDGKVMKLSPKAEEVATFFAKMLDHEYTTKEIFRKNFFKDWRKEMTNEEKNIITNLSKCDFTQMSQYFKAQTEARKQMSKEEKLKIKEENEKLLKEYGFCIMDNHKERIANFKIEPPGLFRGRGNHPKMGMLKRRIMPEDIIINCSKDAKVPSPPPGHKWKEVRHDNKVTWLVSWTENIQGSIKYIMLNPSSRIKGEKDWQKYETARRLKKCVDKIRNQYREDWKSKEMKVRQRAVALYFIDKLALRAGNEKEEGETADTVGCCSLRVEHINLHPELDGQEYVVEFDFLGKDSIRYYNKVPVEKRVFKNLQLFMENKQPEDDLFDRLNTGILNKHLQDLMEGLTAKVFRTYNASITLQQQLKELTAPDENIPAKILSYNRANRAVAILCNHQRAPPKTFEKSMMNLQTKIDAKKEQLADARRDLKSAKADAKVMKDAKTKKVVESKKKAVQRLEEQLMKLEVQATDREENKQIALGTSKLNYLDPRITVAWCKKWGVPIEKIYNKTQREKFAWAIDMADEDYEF
Assay: Inhibition of recombinant human topoisomerase 1-mediated relaxation of supercoiled pBR322 DNA at 100 uM measured after 30 mins by ethidium bromide staining based agarose gel electrophoresis relative to control
Please respond with reported inhibition for every item in the list.
Please reply with the bare figure in % and do not write the unit itself.

Field inhibition (entry Oc1ccc(-c2cc(-c3ccc(F)cc3)nc3c2Cc2ccc(O)cc2-3)cc1 ) reads 0.9

inhibition in this record for Oc1cccc(-c2cc(-c3ccccc3)c3c(n2)-c2c(O)cccc2C3)c1 : 0

So for Oc1cccc2c1Cc1c(-c3ccccc3)cc(-c3ccccc3)nc1-2 , the logged inhibition turned out to be 4.6

Notebook: Oc1ccccc1-c1cc(-c2ccc(F)cc2)nc2c1Cc1c(O)cccc1-2 , inhibition read as 0

Oc1ccc(-c2cc(-c3ccccc3Cl)nc3c2Cc2ccc(O)cc2-3)cc1 has a reported inhibition of 0

Documented inhibition of Oc1ccc2c(c1)Cc1c(-c3ccccc3O)cc(-c3cccc(F)c3)nc1-2 : 0

# inhibition of Oc1ccc2c(c1)-c1nc(-c3ccccc3Cl)cc(-c3ccccc3O)c1C2 = 0

---

System: HeLa
Assay: Antiproliferative activity against human HeLa cells measured after 72 hrs by EZ-Cytox assay
Type: functional, cell-based
Exercise: state measured IC50 for each of the compounds provided.

Measured IC50, Oc1ccc(-c2cc(-c3ccc(Cl)cc3)nc3c2Cc2cccc(O)c2-3)cc1 : > 50 µM

The compound Oc1ccc2c(c1)Cc1c(-c3cccc(Cl)c3)cc(-c3ccccc3O)nc1-2 showed IC50 equal to > 50 µM

The reported IC50 of the compound Oc1ccc(-c2cc(-c3ccc(C(F)(F)F)cc3)nc3c2Cc2cccc(O)c2-3)cc1 was > 50 µM

The reported IC50 of the compound CC[C@@]1(O)C(=O)OCc2c1cc1n(c2=O)Cc2cc3ccccc3nc2-1 was 0.5 to 1.39 µM
